Tested on: RAW264.7
testProtocol: Inhibition of TNFalpha production in mouse RAW264.7 cells at 30 uM incubated for 6 hrs by sandwich immunoassay
Assay type: functional
measurementConditions: RAW264.7, 6 h
Listed here are compounds together with their documented inhibition at 30 µM.
Give the quantity in %, number only.

Example compounds with recorded inhibition at 30 µM:
>>> numericresult("C=CCOc1ccccc1C1CC(=O)c2ccccc2O1 (centres undefined)")
47.8
>>> numericresult("O=C1CC(c2ccccc2OCc2ccc(F)cc2)Oc2ccccc21 (centres undefined)")
92.7
>>> numericresult("CCCCCOc1ccccc1C1CC(=O)c2ccccc2O1 (centres undefined)")
39.2
>>> numericresult("CC(C)c1ccc(COc2ccccc2C2CC(=O)c3ccccc3O2)cc1 (centres undefined)")
80.6
>>> numericresult("O=C1CC(c2ccccc2OCc2cccc(F)c2)Oc2ccccc21 (centres undefined)")
91.6
>>> numericresult("CCCOc1ccccc1C1CC(=O)c2ccccc2O1 (centres undefined)")
46
>>> numericresult("CCOc1ccccc1C1CC(=O)c2ccccc2O1 (centres undefined)")
38.5
>>> numericresult("CC(C)CCOc1ccccc1C1CC(=O)c2ccccc2O1 (centres undefined)")
39.2
>>> numericresult("COCOc1ccccc1C1CC(=O)c2ccccc2O1 (centres undefined)")
48.6
>>> numericresult("CC(C)=CCOc1ccccc1C1CC(=O)c2ccccc2O1 (centres undefined)")
41.7

Query :: Would you mind telling me what inhibition at 30 µM value was observed for CCCCOc1ccccc1C1CC(=O)c2ccccc2O1 (centres undefined) ?
Result :: 48.7

Query :: Consider next the compound COc1ccccc1C1CC(=O)c2ccccc2O1 (centres undefined) in the same way.
Result :: 37.3

Query :: And what about the compound O=C1CC(c2ccccc2OCc2ccccc2)Oc2ccccc21 (centres undefined) ?
Result :: 86.1

Query :: Another compound: CC(C)COc1ccccc1C1CC(=O)c2ccccc2O1 (centres undefined)
Result :: 36.7

* * *

Each entry below lists one item and its recorded viability at 24 h, 50 µM value.
testProtocol: Cytotoxicity against mouse J774A.1 cells assessed as cell viability at 50 uM after 24 hrs by MTT assay
Type: cell-based, J774.A1
measurementConditions: read-out: Activity
A number alone suffices; assume %.

Query :: Given the entry COc1ccccc1C1CC(=O)c2ccccc2O1 (centres undefined) , report its measured viability at 24 h, 50 µM.
Result :: 89.3

* * *

Test system: J774.A1
testProtocol: Inhibition of IL-1beta production in mouse J774A.1 cells incubated for 12 hrs by sandwich immunoassay
Type: functional, cell-based
measurementConditions: J774.A1, 12 h
experimentalEndpoint: pIC50
API: returns pIC50 as number; meaning -log10 of concentration in mol/L.

>>> numericresult("O=C1CC(c2ccccc2OCc2cccc(F)c2)Oc2ccccc21 (centres undefined)")
4.52
>>> numericresult("O=C1CC(c2ccccc2OCc2ccccc2)Oc2ccccc21 (centres undefined)")
4.61
>>> numericresult("C[C@@H]1C[C@H]2[C@@H]3CCC4=CC(=O)C=C[C@]4(C)[C@@]3(F)[C@@H](O)C[C@]2(C)[C@@]1(O)C(=O)CO")
4.66

Next up:
Query :: Which pIC50 reading was recorded for the molecule CC(C)c1ccc(COc2ccccc2C2CC(=O)c3ccccc3O2)cc1 (centres undefined) ?
Result :: 4.64

* * *

Measured viability at 24 h, 50 µM of individual entries
testProtocol: Cytotoxicity against mouse RAW264.7 cells assessed as cell viability at 50 uM after 24 hrs by MTT assay
Type: cell-based
measurementConditions: read-out: Activity
Give a bare numeral; the unit % is implied.

Query :: I'd like to know its viability at 24 h, 50 µM. The compound in question is CCOc1ccccc1C1CC(=O)c2ccccc2O1 (centres undefined)
Result :: 82.6

Query :: Likewise for COCOc1ccccc1C1CC(=O)c2ccccc2O1 (centres undefined) ?
Result :: 92.2

Query :: Same question, C=CCOc1ccccc1C1CC(=O)c2ccccc2O1 (centres undefined) this time
Result :: 89.3

Query :: Same for CCCOc1ccccc1C1CC(=O)c2ccccc2O1 (centres undefined)
Result :: 91.7

Query :: Repeat for the following compound: CC(C)CCOc1ccccc1C1CC(=O)c2ccccc2O1 (centres undefined)
Result :: 81.6

Query :: Okay, and O=C1CC(c2ccccc2OCc2ccccc2)Oc2ccccc21 (centres undefined) ?
Result :: 91.2

meta.source: ChEMBL document CHEMBL3400020
